Percent Effect values for the compounds below.
Test system: Trypanosoma cruzi
Assay Text: Trypanosoma cruzi phosphomannomutase and mannose-1-phosphate guanylyltransferase assay
Assay type: functional
Parameters: scale not given: direction of the effect not stated beside the values
Measurement Conditions: 10 µM
Kindly answer with a numeric value in %, unit omitted.

Here are 5 compounds together with their reported answers.
| Compound | Property | Reported Measurement |
| --- | --- | --- |
| CCN(CC1CCOC1)C(=O)Nc1ccc(N2CCCC2)nc1 (stereo unspecified) | Percent Effect | 5.35 |
| COc1ccc(CNCc2ccnc(N3CCOCC3)c2)cc1OC | Percent Effect | 5.16 |
| CCCc1nc(C)c(C(=O)NS(=O)(=O)c2ccc(C#N)cc2)s1 | Percent Effect | 6.18 |
| O=C(c1ccccn1)N1CCn2cnc(COCC3CC3)c2C1 | Percent Effect | -2.86 |
| CN(C)c1cc(CNC(=O)Nc2ccc(S(C)(=O)=O)nc2)ccn1 | Percent Effect | 0.845 |

Prompt: // query Percent Effect value for entry CCS(=O)(=O)N1CCc2ccc(NC(=O)Nc3cccc(SC)c3)cc21
Response: 0.69

Prompt: // query Percent Effect value for entry Cn1cc(CN2CCc3c(nc(-c4ccccn4)[nH]c3=O)C2)cn1
Response: -2.56

Prompt: // query Percent Effect value for entry C[C@@H]1CN(C2(C(=O)N3CCOCC3)Cc3ccccc3C2)C[C@H](C)O1
Response: 0.875

Prompt: // query Percent Effect value for entry N#CCCCS(=O)(=O)N1CCCC1CC(=O)c1cccs1 (stereo unspecified)
Response: -1.93

Prompt: // query Percent Effect value for entry CCC(NC(=O)C1CCN(S(=O)(=O)N(C)C)CC1)c1ccc(C)c(C)c1 (stereo unspecified)
Response: -2.46
